This collection of values is drawn from paper PMC3504387.

- assayedSystem: T1, GST–PPARα fusion protein (purified ligand binding domain of PPARα)
- T1 sequence (Q07869 whole entry, species assumed, looked up): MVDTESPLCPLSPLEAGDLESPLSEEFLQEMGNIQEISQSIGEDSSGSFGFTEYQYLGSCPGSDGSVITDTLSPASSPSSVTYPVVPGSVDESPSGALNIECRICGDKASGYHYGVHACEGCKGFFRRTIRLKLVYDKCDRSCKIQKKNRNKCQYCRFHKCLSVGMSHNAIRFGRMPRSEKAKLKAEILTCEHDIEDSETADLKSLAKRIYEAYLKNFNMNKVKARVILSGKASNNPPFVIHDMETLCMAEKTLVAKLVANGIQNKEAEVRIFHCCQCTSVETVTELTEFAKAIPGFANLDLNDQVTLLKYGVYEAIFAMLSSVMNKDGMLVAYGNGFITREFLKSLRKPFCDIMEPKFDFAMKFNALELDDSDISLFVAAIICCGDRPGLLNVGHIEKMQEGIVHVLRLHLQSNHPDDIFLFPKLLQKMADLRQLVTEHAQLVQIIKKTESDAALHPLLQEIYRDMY
- testProtocol: FRET or BRET; homogeneous TR-FRET as a1, 12-concentration dose–response of edaglitazone; the EC50 is of the compound; delta ratio in % of the reference compound at 10 μM (RO4899100 for PPARα, edaglitazone for PPARγ)
Where no end group is shown, it is not given here. The star is where a group is joined. Biotin = O=C1N[C@H]2[C@H](CS[C@H]2CCCCC(=O)*)N1; Ahx = NCCCCCC(=O)O
metricName: delta ratio with edaglitazone (%)
Give the quantity in %, number only.

Study these solved cases before continuing.
Just so you know, measured delta ratio with edaglitazone for {Biotin-Ahx}-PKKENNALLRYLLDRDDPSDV (source: synthetic peptide (Jerini or Biosynthan, Berlin)) [RAC3_M3 cofactor peptide (receptor-associated co-activator 3, motif 3)] came out at 24

Just so you know, measured delta ratio with edaglitazone for {Biotin-Ahx}-SPKKKENALLRYLLDKDDTK [TIF2_M3 cofactor peptide (transcriptional intermediary factor 2, motif 3)] came out at 32

Just so you know, measured delta ratio with edaglitazone for {Biotin-Ahx}-STHGTSLKEKHKILHRLLQDS [TIF2_M2 cofactor peptide (transcriptional intermediary factor 2, motif 2)] came out at 21

Just so you know, measured delta ratio with edaglitazone for {Biotin-Ahx}-SRLHDSKGQTKLLQLLTTKSD (transcriptional intermediary factor 2 (TIF2), motif 1, residues 630-650; source: synthetic peptide (Jerini or Biosynthan, Berlin)) [TIF2_M1 cofactor peptide (transcriptional intermediary factor 2, motif 1)] came out at 26

Just so you know, measured delta ratio with edaglitazone for {Biotin-Ahx}-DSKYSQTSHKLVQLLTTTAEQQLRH (source: synthetic peptide (Jerini or Biosynthan, Berlin)) [SRC1_M1 cofactor peptide (steroid receptor co-activator 1, motif 1)] came out at 41

Just so you know, measured delta ratio with edaglitazone for {Biotin-Ahx}-ADPASNLGLEDIIRKALMGSF (nuclear receptor co-repressor (NCoR), ID2; also called NCoR2; NcoR2; source: synthetic peptide (Jerini or Biosynthan, Berlin)) [NCoR ID2 cofactor peptide (nuclear receptor co-repressor, interaction domain 2)] came out at -44

Now look at this entry.
Just so you know, measured delta ratio with edaglitazone for {Biotin-Ahx}-AVQEHASTNMGLEAIIRKALMGKYD (silencing mediator of retinoid and thyroid hormone receptors (SMRT), ID2, residues 2331-2355; also called SMRT2; source: synthetic peptide (Jerini or Biosynthan, Berlin)) came out at -20
